Molecular target: PPAR Alpha (Homo sapiens, UniProt Q07869)
Sequence (Q07869 1-468): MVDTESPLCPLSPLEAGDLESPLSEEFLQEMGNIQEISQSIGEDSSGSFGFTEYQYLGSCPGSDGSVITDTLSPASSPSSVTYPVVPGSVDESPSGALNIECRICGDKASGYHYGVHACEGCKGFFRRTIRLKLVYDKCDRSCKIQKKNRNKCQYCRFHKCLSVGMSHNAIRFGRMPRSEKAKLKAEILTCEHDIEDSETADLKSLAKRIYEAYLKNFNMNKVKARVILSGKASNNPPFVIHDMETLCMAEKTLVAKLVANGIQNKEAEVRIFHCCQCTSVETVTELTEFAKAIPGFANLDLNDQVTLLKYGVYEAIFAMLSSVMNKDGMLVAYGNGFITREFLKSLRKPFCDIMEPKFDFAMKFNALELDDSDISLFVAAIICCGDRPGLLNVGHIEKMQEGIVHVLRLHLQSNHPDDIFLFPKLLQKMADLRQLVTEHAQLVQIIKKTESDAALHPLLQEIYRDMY
Experiment: PathHunter NHR protein interaction / nuclear translocation agonist test, PPAR Alpha
Assay type: cell-based
Settings: agonist mode; read-out: PPAR Alpha EC50
measure: EC50

{"compound": "Cc1cc(CCC2CN(C(=O)Oc3ccccc3)CC2C(=O)c2ccccc2)cc(C)c1OC(C)(C)C(=O)O (single isomer, unassigned)", "EC50": "100 to 150 nM"}
{"compound": "CSc1ccc(C(=O)[C@@H]2CN(C(=O)Oc3ccccc3)C[C@H]2CCc2cc(C)c(OC(C)(C)C(=O)O)c(C)c2)cc1 (single isomer, unassigned) [Compound 52]", "EC50": "< 100 nM"}
{"compound": "CSc1ccc(C(=O)C2CN(C(=O)Oc3ccc(F)cc3)CC2c2cc(C)c(OC(C)(C)C(=O)O)c(C)c2)cc1 (single isomer, unassigned)", "EC50": "200 to 250 nM"}
{"compound": "Cc1cc(CCC2CN(C(=O)Oc3ccccc3)CC2C(=O)c2ccc(F)cc2)cc(C)c1OC(C)(C)C(=O)O (single isomer, unassigned)", "EC50": "< 100 nM"}
{"compound": "Cc1cc(CCC2CN(C(=O)Oc3ccccc3)CC2C(=O)c2ccc(Cl)s2)cc(C)c1OC(C)(C)C(=O)O (single isomer, unassigned)", "EC50": "< 100 nM"}

Please find the next compound below.
// sample CSc1ccc(C(=O)[C@H]2CNC[C@@H]2c2cc(C)c(OC(C)(C)C(=O)O)c(C)c2)cc1 (racemic) , its EC50 was > 250 nM

---

# Emax per entry
molecular target: PPAR Alpha (Homo sapiens, UniProt Q07869); assay: PathHunter NHR protein interaction / nuclear translocation agonist test, PPAR Alpha; assay type: cell-based; settings: read-out: PPAR Alpha Maximum Activation Response %

Study these solved cases before continuing.
{"compound": "Cc1cc(CC2CN(C(=O)Oc3ccccc3)CC2C(=O)c2ccc(F)cc2)cc(C)c1OC(C)(C)C(=O)O (single isomer, unassigned)", "Emax": "80 to 100%"}
{"compound": "CSc1ccc(C(=O)C2CN(C(=O)Oc3ccccc3)CC2CCc2ccc(OC(C)(C)C(=O)O)c(C)c2)cc1 (single isomer, unassigned)", "Emax": "80 to 100%"}
{"compound": "CSc1ccc(C(=O)[C@@H]2CN(S(C)(=O)=O)C[C@H]2CCc2cc(C)c(OC(C)(C)C(=O)O)c(C)c2)cc1 (single isomer, unassigned)", "Emax": "80 to 100%"}
{"compound": "CSc1ccc(C(=O)[C@@H]2CN(C(=O)Oc3ccc(Cl)cc3Cl)C[C@H]2c2cc(C)c(OC(C)(C)C(=O)O)c(C)c2)cc1 (single isomer, unassigned)", "Emax": "80 to 100%"}
{"compound": "CSc1ccc(C(=O)[C@H]2CN(C(=O)Cc3ccc(Cl)cc3)C[C@@H]2c2cc(C)c(OC(C)(C)C(=O)O)c(C)c2)cc1 (racemic)", "Emax": "80 to 100%"}

Next up:
The reported value for CSc1ccc(C(=O)[C@H]2CNC[C@@H]2c2cc(C)c(OC(C)(C)C(=O)O)c(C)c2)cc1 (racemic) in terms of Emax is < 50%

This collection of values is drawn from patent US10526320B2.
